target: BRD4 BD1 (Homo sapiens (Human), UniProt O60885); experiment: Bromodomain binding assay (T7 phage display, qPCR), BRD4 BD1; details: dose response; read-out: BRD4(1) Kd
pKd: −log10 of the molar value.
METRIC: pKd

Tell me measured pKd for CCNC(=O)c1cc2c(-c3ccn(C)c(=O)c3Oc3c(C)cc(F)cc3C)cn(C)c(=O)c2[nH]1 please.
< 5.52

====

test: Solubility in topical formulations; format: physicochemical; details: Transcutol:water 1:1, aqueous with cosolvent or surfactant or cyclodextrin, thermodynamic from solid; 5 hr at 32° C.; read-out: Solubility in TC:water 1:1
The compounds listed here are annotated with their solubility at 5 hr.

Cn1cc(-c2cc(O)ccc2Oc2ccccc2)c2cc[nH]c2c1=O [Example 6] = 1000 to 10000 µg/mL

Please give measured solubility at 5 hr of the following entry: Cn1cc(-c2cccc(O)c2Oc2ccccc2)c2cc[nH]c2c1=O [Example 1]
1000 to 10000 µg/mL

// Input: Cn1cc(-c2c(O)cccc2Oc2ccccc2)c2cc[nH]c2c1=O [Example 3] . Output its solubility at 5 hr only.
> 10000 µg/mL

// Input: Cn1cc(-c2ccc(O)cc2Oc2ccccc2)c2cc[nH]c2c1=O [Example 2] . Output its solubility at 5 hr only.
1000 to 10000 µg/mL

====

biological target: BRD4 BD1 (Homo sapiens (Human)); assay: Bromodomain binding assay (T7 phage display, qPCR), BRD4 BD1; conditions: read-out: BRD4 BD1 Kd
A collection of compounds and their measured Kd

Cn1ccc(-c2cn(C)c(=O)c3[nH]ccc23)c(Oc2ccccc2)c1=O = 10 to 100 nM

Quickly give me recorded Kd for Cn1cc(Oc2ccccc2O)c(-c2cn(C)c(=O)c3[nH]ccc23)cc1=O
100 to 1000 nM

Answer with the recorded Kd for the compound listed here: Cn1cc(-c2cc(=O)n(C)cc2Oc2ccc(O)cc2)ccc1=O
100 to 1000 nM

Please supply the value of reported Kd for the item Cn1ccc(-c2cn(C)c(=O)c3[nH]ccc23)c(Oc2cccc(O)c2)c1=O
≤ 10 nM

====

target: BRD4 BD2 (Homo sapiens (Human), UniProt O60885); test: Bromodomain binding assay (T7 phage display, qPCR), BRD4 BD2; settings: dose response; read-out: BRD4(2) Kd
pKd: −log10 of the molar value.
METRIC: pKd

Output measured pKd for this item: CCNC(=O)c1cc2c(-c3ccn(C)c(=O)c3Oc3c(C)cc(F)cc3C)cn(C)c(=O)c2[nH]1
> 8.00

====

test system: primary keratinocytes stimulated by polyinosinic:polycytidylic acid; experiment: Cellular activity broad panel: reduction of cytokine/chemokine levels in stimulated primary keratinocytes; assay type: cell-based; details: Homo sapiens, Keratinocyte; poly I:C 20 μg/mL, 48 hrs; read-out: EC50 reduction of TSLP
pEC50: −log10 of the molar value.
Recorded measurements of pEC50, one per entry

Cn1cc(-c2cccc(O)c2Oc2ccccc2)c2cc[nH]c2c1=O = 7.00 to 8.00

Would you kindly look at the next entry?
Indicate the recorded pEC50 value for this molecule: Cn1cc(-c2c(O)cccc2Oc2ccccc2)c2cc[nH]c2c1=O
≥ 8.00

====

tested on: human liver hepatocytes; test: Intrinsic clearance in human liver hepatocytes; format: in vitro ADME; conditions: human cryopreserved hepatocytes, 0.5 μM test compound
Rule: Intrinsic clearance, % Liver Blood Flow below 40 % Liver Blood Flow gives Criterion met, anything at or above gives Criterion not met.

Cn1cc(Oc2cccc(O)c2)c(-c2cn(C)c(=O)c3[nH]ccc23)cc1=O [Example 24] = Criterion not met
Cn1cc(-c2scnc2Oc2ccccc2)c2cc[nH]c2c1=O [Example 4] = Criterion not met

In the record for Cn1ccc(-c2cn(C)c(=O)c3[nH]ccc23)c(Oc2ccccc2)c1=O [Example 5] , is Intrinsic clearance, % Liver Blood Flow less than 40 % Liver Blood Flow?
Criterion met

Lab note: Intrinsic clearance, % Liver Blood Flow threshold 40 % Liver Blood Flow. Does this molecule come in strictly under it? COc1cccc(Oc2c(-c3cn(C)c(=O)c4[nH]ccc34)ccn(C)c2=O)c1 [Example 32]
Criterion met

====

assay: Solubility in topical formulations; assay type: physicochemical; conditions: propylene glycol, organic solvent or mixture, thermodynamic from solid; 5 hr at 32° C.; read-out: Solubility in PG (Propylene glycol)
METRIC: solubility at 5 hr

Worked cases, solubility at 5 hr given:
Cn1cc(-c2ccc(O)cc2Oc2ccccc2)c2cc[nH]c2c1=O = 1000 to 10000 µg/mL
Cn1cc(-c2cccc(O)c2Oc2ccccc2)c2cc[nH]c2c1=O = 1000 to 10000 µg/mL
Cn1cc(-c2c(O)cccc2Oc2ccccc2)c2cc[nH]c2c1=O = > 10000 µg/mL

Note: attention shifts to another entry.
Write down solubility at 5 hr measured for item Cn1cc(-c2cc(O)ccc2Oc2ccccc2)c2cc[nH]c2c1=O
> 10000 µg/mL

====

system: human liver hepatocytes; test: Intrinsic clearance in human liver hepatocytes; assay type: in vitro ADME; details: human cryopreserved hepatocytes, 0.5 μM test compound
METRIC: Intrinsic clearance, % Liver Blood Flow

These recorded examples may help you get a feel for the data.
COc1ccccc1Oc1c(-c2cn(C)c(=O)c3[nH]ccc23)ccn(C)c1=O [Example 30] = <34 % Liver Blood Flow
COc1ccc(Oc2c(-c3cn(C)c(=O)c4[nH]ccc34)ccn(C)c2=O)cc1 [Example 34] = <34 % Liver Blood Flow

For Cn1cc(Oc2ccccc2)c(-c2cn(C)c(=O)c3[nH]ccc23)cc1=O [Example 7] , write its Intrinsic clearance, % Liver Blood Flow.
<34 % Liver Blood Flow

For Cn1cc(-c2scnc2Oc2ccccc2)ccc1=O [Example 18] , write its Intrinsic clearance, % Liver Blood Flow.
69 % Liver Blood Flow

Recall and state the measured Intrinsic clearance, % Liver Blood Flow for Cn1cc(-c2cc(=O)n(C)cc2Oc2ccc(O)cc2)ccc1=O [Example 28] .
<34 % Liver Blood Flow

====

system: primary keratinocytes stimulated by polyinosinic:polycytidylic acid; test: Cellular activity broad panel: reduction of cytokine/chemokine levels in stimulated primary keratinocytes; type: cell-based; conditions: Homo sapiens, Keratinocyte; poly I:C 20 μg/mL, 48 hrs; read-out: EC50 reduction of TNF-a
Let's look at some molecules and their measured EC50.

Cn1cc(-c2c(O)cccc2Oc2ccccc2)c2cc[nH]c2c1=O = ≤ 0.01 µM

Hello, please tell me recorded EC50 for this one: Cn1cc(-c2cccc(O)c2Oc2ccccc2)c2cc[nH]c2c1=O
≤ 0.01 µM

====

molecular target: BRD4 BD1 (Homo sapiens (Human), UniProt O60885); test: Bromodomain binding assay (T7 phage display, qPCR), BRD4 BD1; settings: read-out: BRD4 BD1 Kd
pKd: −log10 of the molar value.
Reported values of pKd for individual entries

Before answering, review these 3 worked examples.
Cn1cc(-c2scnc2Oc2ccccc2)c2cc[nH]c2c1=O = 7.00 to 8.00
Cn1cc(-c2ccnn2Cc2ccccc2)c2cc[nH]c2c1=O = 6.00 to 7.00
COc1cccc(Oc2cn(C)c(=O)cc2-c2cn(C)c(=O)c3[nH]ccc23)c1 = 7.00 to 8.00

We now examine a further compound.
Tell me measured pKd for Cc1cc(F)cc(C)c1Oc1c(-c2cn(C)c(=O)c3[nH]c(C(=O)NC(C)(C)C(F)(F)F)cc23)ccn(C)c1=O please.
< 6.00

====

Below: a set of entries, each annotated with reported Kd.
target: BRD4 BD1 (Homo sapiens (Human)); assay: Bromodomain binding assay (T7 phage display, qPCR), BRD4 BD1; settings: read-out: BRD4 BD1 Kd

Examples with their reported Kd follow.
Cn1cc(-c2scnc2Cc2ccccc2)c2cc[nH]c2c1=O = 10 to 100 nM
Cn1cc(-c2scnc2Oc2ccc(O)cc2)c2cc[nH]c2c1=O = 10 to 100 nM

Fill in Kd for record Cc1cc(F)cc(C)c1Oc1c(-c2cn(C)c(=O)c3[nH]c(C(=O)NC4(C)CC4(F)F)cc23)ccn(C)c1=O (centres unmarked)
> 1000 nM

In one line, give reported Kd of the entry Cn1cc(-c2scnc2Oc2ccccc2)ccc1=O .
100 to 1000 nM

Give me measured Kd, please, for this compound: Cn1ccc(-c2cn(C)c(=O)c3[nH]ccc23)c(Oc2ccccc2O)c1=O
10 to 100 nM

====

target: BRD4 BD2 (Homo sapiens (Human), UniProt O60885); test: Bromodomain binding assay (T7 phage display, qPCR), BRD4 BD2; details: read-out: BRD4 BD2 Kd
pKd: −log10 of the molar value.
METRIC: pKd

CCNC(=O)c1cc2c(-c3ccn(C)c(=O)c3Oc3c(C)cc(F)cc3C)cn(C)c(=O)c2[nH]1 = ≥ 8.00
Cn1cc(-c2scnc2Oc2ccccc2)c2cc[nH]c2c1=O = ≥ 8.00

Please look at the following compound next.
Return value of pKd for input Cc1cc(F)cc(C)c1Oc1c(-c2cn(C)c(=O)c3[nH]c(C(=O)NC4(C)CC4(F)F)cc23)ccn(C)c1=O (stereo not drawn) , no commentary.
7.00 to 8.00

These measurements were taken from patent US12384777B2.
